Catalogue of aP2 mRNA readings, one per entry.
- System: aP2
- run description: aP2 mRNA expression in adipocytes (real-time PCR)
- Type: cell-based, human
- protocol conditions: differentiating adipocytes transfected with oligomeric compound; Table 75
In the oligonucleotide strings, read from the 5' end, every base follows the letter of its sugar. An asterisk marks phosphorothioate; unmarked linkages are phosphodiester. Other units and linkages are bracketed, terminal groups are in braces. A string of capitals states the bases alone. e = 2'-O-(2-methoxyethyl) (MOE); [5mC] = 5-methylcytosine

- substance: "328137 (eG*eT*eA*eA*eG*e[5mC]*eG*e[5mC]*eA*eG*e[5mC]*eT*e[5mC]*e[5mC]*eA*e[5mC]*eA*eG*eG*e[5mC]*eT; anti-miR) [compound 328137]"
  system name: "aP2"
  aP2 mRNA: "45 percentage of untreated control (UTC)"
- substance: "328129 (antisense eA*eG*e[5mC]*e[5mC]*eT*e[5mC]*e[5mC]*eT*eT*e[5mC]*eT*eT*e[5mC]*eT*e[5mC]*eG*eT*eA*e[5mC]*eT*eA) [compound 328129]"
  system name: "aP2"
  aP2 mRNA: "54 percentage of untreated control (UTC)"
- substance: "344612 (ACGGAAGGGCAGAGAGGGCCAG; anti-miR; all 2'-MOE, all phosphorothioate, methylation of C not given here) [compound 344612]"
  system name: "aP2"
  aP2 mRNA: "72 percentage of untreated control (UTC)"
- substance: "328102 (antisense eG*e[5mC]*e[5mC]*e[5mC]*e[5mC]*eA*eT*eT*eA*eA*eT*eA*eT*eT*eT*eT*eA*eA*e[5mC]*e[5mC]*eA) [compound 328102]"
  system name: "aP2"
  aP2 mRNA: "96 percentage of untreated control (UTC)"
- substance: "327900 (antisense e[5mC]*eT*eG*e[5mC]*e[5mC]*eT*eG*eT*e[5mC]*eT*eG*eT*eG*e[5mC]*e[5mC]*eT*eG*e[5mC]*eT*eG*eT) [compound 327900]"
  system name: "aP2"
  aP2 mRNA: "32 percentage of untreated control (UTC)"
- substance: "328090 (antisense eA*eT*eT*eA*eA*eA*eA*eA*eG*eT*e[5mC]*e[5mC]*eT*e[5mC]*eT*eT*eG*e[5mC]*e[5mC]*e[5mC]*eA) [compound 328090]"
  system name: "aP2"
  aP2 mRNA: "68 percentage of untreated control (UTC)"
- substance: "346688 (UAGUUGGCAAGUCUAGAACCA; all 2'-MOE, all phosphorothioate, methylation of C and T or U not given here) [compound 346688]"
  system name: "aP2"
  aP2 mRNA: "48 percentage of untreated control (UTC)"

Where do the numbers come from? From patent US8178506B2.
